- TEST_SUMMARY: Intrinsic clearance in rat liver microsomes at 1 uM measured up to 30 mins in presence of NADPH by HPLC analysis
- Type: ADME, microsome
- CONDITION_LABEL: read-out: CLH
ENDPOINT_NAME: microsomal CLint at 1 µM (µL/min/mg)

Record excerpt, results attached:
{"columns": ["MOLECULE", "ENDPOINT_NAME", "NUMBER"],
 "data": [
  ["COc1ccc(C(=O)N2CC(c3cc(C)nc4ncnn34)CC(F)(F)C2)cc1C (racemic)", "microsomal CLint at 1 µM", 67.7],
  ["Cc1cc([C@@H]2CN(C(=O)c3ccc(F)c(C4CC4)c3)CC(F)(F)C2)n2ncnc2n1", "microsomal CLint at 1 µM", 162],
  ["Cc1cc(C2CCCN(C(=O)c3ccc4ccccc4c3)C2)n2ncnc2n1 (racemic)", "microsomal CLint at 1 µM", 85.6],
  ["Cc1cc(C2CCCN(C(=O)c3ccc4c(c3)OCC4)C2)n2ncnc2n1 (centres undefined)", "microsomal CLint at 1 µM", 21.7],
  ["Cc1cc(N2CCCC(C(=O)Nc3ccc4ccccc4c3)C2)n2ncnc2n1 (centres undefined)", "microsomal CLint at 1 µM", 53.4],
  ["Cc1cc(C2CN(C(=O)c3ccc4ccccc4c3)CC(F)(F)C2)n2ncnc2n1 (racemic)", "microsomal CLint at 1 µM", 78.8],
  ["Cc1cc([C@@H]2CN(C(=O)c3cc(C)c(F)c(F)c3)CC(F)(F)C2)n2ncnc2n1", "microsomal CLint at 1 µM", 52.2],
  ["COc1ccc(C(=O)N2CCCC(c3cc(C)nc4ncnn34)C2)cc1C (centres undefined)", "microsomal CLint at 1 µM", 30.2],
  ["O=C(Nc1ccc2c(c1)CCC2)C1CCCN(c2cc(C(F)(F)F)nc3ncnn23)C1 (centres undefined)", "microsomal CLint at 1 µM", 94.1],
  ["Cc1cc(C2CCCN(C(=O)c3ccc4ncccc4c3)C2)n2ncnc2n1 (centres undefined)", "microsomal CLint at 1 µM", 6.3]
]}

a. Cc1cc(C2CCCN(C(=O)c3ccc(F)c(C)c3)C2)n2ncnc2n1 (centres undefined)
b. Cc1cc(N2CCCC(C(=O)Nc3ccc4c(c3)CCC4)C2)n2ncnc2n1 (centres undefined)
In: // returns a or b , whichever has the lower microsomal CLint at 1 µM Pick one and reply with its label.
Out: a
(a: 33.5 µL/min/mg, b: 67.9 µL/min/mg)

A. Cc1cc([C@@H]2CN(C(=O)c3ccc(F)c(Br)c3)CC(F)(F)C2)n2ncnc2n1
B. Cc1cc([C@@H]2CCCN(C(=O)c3ccc4ccccc4c3)C2)n2ncnc2n1
In: // returns A or B , whichever has the lower microsomal CLint at 1 µM Pick one and reply with its label.
Out: A

A. O=C(Nc1ccc2c(c1)CCC2)C1CCCN(c2ccnc3ncnn23)C1 (centres undefined)
B. Cc1cc([C@H]2CN(C(=O)c3ccc(F)c(Br)c3)CC(F)(F)C2)n2ncnc2n1
In: Of the two listed items, which has the higher microsomal CLint at 1 µM? First: A Second: B Pick one and reply with its label.
Out: A
(A: 76.2 µL/min/mg, B: 17.3 µL/min/mg)

A. Cc1cc([C@H]2CCCN(C(=O)c3ccc4ccccc4c3)C2)n2ncnc2n1
B. COc1cc(Cl)ccc1NC(=O)C1CCCN(c2cc(C)nc3ncnn23)C1 (centres undefined)
In: Of the two listed items, which has the higher microsomal CLint at 1 µM? First: A Second: B Pick one and reply with its label.
Out: A
